Assign viability, T/C to each entry below.
- System: MPNST complex spheroid with HUVEC/MSC, growth, % test/control
- measurementDescription: Anticancer human tumor MPNST cell line growth inhibition [Asc];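 note: compounds left on spheroids for seven days before reading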
- conditionDescription: second compound 1 µM; first compound 10 µM; stronger effect = lower value
One number for each entry, in %.

The cases that follow already have their viability, T/C on record.
- O=C(c1cc(Cc2n[nH]c(=O)c3ccccc23)ccc1F)N1CCN(C(=O)C2CC2)CC1 + CNC(C)C(=O)NC1CN(S(=O)(=O)c2cccc(S(=O)(=O)N3CCC4CCC(C(=O)NC(c5ccccc5)c5ccccc5)N4C(=O)C(NC(=O)C(C)NC)C3)c2)CCC2CCC(C(=O)NC(c3ccccc3)c3ccccc3)N2C1=O: 42
- C#Cc1c(F)ccc2cc(O)cc(-c3ncc4c(N5CC6CCC(C5)N6)nc(OCC56CCCN5CC(F)C6)nc4c3F)c12 (stereo not drawn) + CNC(C)C(=O)NC1CN(S(=O)(=O)c2cccc(S(=O)(=O)N3CCC4CCC(C(=O)NC(c5ccccc5)c5ccccc5)N4C(=O)C(NC(=O)C(C)NC)C3)c2)CCC2CCC(C(=O)NC(c3ccccc3)c3ccccc3)N2C1=O: 84.3

Assay MPNST complex spheroid with HUVEC/MSC, growth, % test/control, sample O=C(c1cc(Cc2n[nH]c(=O)c3ccccc23)ccc1F)N1CCN(C(=O)C2CC2)CC1 + Cc1c(S(C)(=O)=O)c(-c2cc(F)cc(N3CCN(c4ccc(NS(=O)(=O)c5ccc(NC(CCN6CCC(C(=O)OCCCP(=O)(O)O)CC6)CSc6ccccc6)c(S(=O)(=O)C(F)(F)F)c5)cc4)CC3)c2)c(-c2ccc(Cl)cc2)n1C(C)C , viability, T/C read: 49.7

====

- System: MPNST complex spheroid with HUVEC/MSC, growth, % test/control
- measurementDescription: Anticancer human tumor MPNST cell line growth inhibition [Asc];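 note: compounds left on spheroids for seven days before reading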
- conditionDescription: curve of first compound; second compound 0.1 µM
pIC50: −log10 of the molar value.
Assign pIC50 to each entry below.

* C#Cc1c(F)ccc2cc(O)cc(-c3ncc4c(N5CC6CCC(C5)N6)nc(OCC56CCCN5CC(F)C6)nc4c3F)c12 (stereo not drawn) + Cc1c(S(C)(=O)=O)c(-c2cc(F)cc(N3CCN(c4ccc(NS(=O)(=O)c5ccc(NC(CCN6CCC(C(=O)OCCCP(=O)(O)O)CC6)CSc6ccccc6)c(S(=O)(=O)C(F)(F)F)c5)cc4)CC3)c2)c(-c2ccc(Cl)cc2)n1C(C)C | < 5.00

Hi, could you look up pIC50 for each item in my list?
1. CCN1CCN(Cc2ccc(Nc3ncc(F)c(-c4cc(F)c5nc(C)n(C(C)C)c5c4)n3)nc2)CC1 + Cc1c(S(C)(=O)=O)c(-c2cc(F)cc(N3CCN(c4ccc(NS(=O)(=O)c5ccc(NC(CCN6CCC(C(=O)OCCCP(=O)(O)O)CC6)CSc6ccccc6)c(S(=O)(=O)C(F)(F)F)c5)cc4)CC3)c2)c(-c2ccc(Cl)cc2)n1C(C)C
2. NC(=O)C(=Cn1cnc(-c2cc(C(F)(F)F)cc(C(F)(F)F)c2)n1)c1cncnc1 + Cc1c(S(C)(=O)=O)c(-c2cc(F)cc(N3CCN(c4ccc(NS(=O)(=O)c5ccc(NC(CCN6CCC(C(=O)OCCCP(=O)(O)O)CC6)CSc6ccccc6)c(S(=O)(=O)C(F)(F)F)c5)cc4)CC3)c2)c(-c2ccc(Cl)cc2)n1C(C)C

["< 6.00", "< 6.52"]

====

Assign viability, T/C to each entry below.
- System: MPNST complex spheroid with HUVEC/MSC, growth, % test/control
- measurementDescription: Anticancer human tumor MPNST cell line growth inhibition [Asc];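 note: compounds left on spheroids for seven days before reading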
- conditionDescription: second compound 0.1 µM; first compound 3.16 µM; stronger effect = lower value
Numbers only, in %.

• C=CC(=O)N1CCN(c2nc(=O)n(-c3c(C)ccnc3C(C)C)c3nc(-c4c(O)cccc4F)c(F)cc23)C(C)C1 (stereo not drawn) + CNC(C)C(=O)NC1CN(S(=O)(=O)c2cccc(S(=O)(=O)N3CCC4CCC(C(=O)NC(c5ccccc5)c5ccccc5)N4C(=O)C(NC(=O)C(C)NC)C3)c2)CCC2CCC(C(=O)NC(c3ccccc3)c3ccccc3)N2C1=O = 127
• C#Cc1c(F)ccc2cc(O)cc(-c3ncc4c(N5CC6CCC(C5)N6)nc(OCC56CCCN5CC(F)C6)nc4c3F)c12 (stereo not drawn) + Cc1c(S(C)(=O)=O)c(-c2cc(F)cc(N3CCN(c4ccc(NS(=O)(=O)c5ccc(NC(CCN6CCC(C(=O)OCCCP(=O)(O)O)CC6)CSc6ccccc6)c(S(=O)(=O)C(F)(F)F)c5)cc4)CC3)c2)c(-c2ccc(Cl)cc2)n1C(C)C = 99.9
• C=CC(=O)N1CCN(c2nc(=O)n(-c3c(C)ccnc3C(C)C)c3nc(-c4c(O)cccc4F)c(F)cc23)C(C)C1 (stereo not drawn) + Cc1c(S(C)(=O)=O)c(-c2cc(F)cc(N3CCN(c4ccc(NS(=O)(=O)c5ccc(NC(CCN6CCC(C(=O)OCCCP(=O)(O)O)CC6)CSc6ccccc6)c(S(=O)(=O)C(F)(F)F)c5)cc4)CC3)c2)c(-c2ccc(Cl)cc2)n1C(C)C = 93.4
• C=C(F)C(=O)N1CCN(c2nc(OCC3CCCN3C)nc3c2CCN(c2cccc4cccc(Cl)c24)C3)CC1CC#N (stereo not drawn) + Cc1c(S(C)(=O)=O)c(-c2cc(F)cc(N3CCN(c4ccc(NS(=O)(=O)c5ccc(NC(CCN6CCC(C(=O)OCCCP(=O)(O)O)CC6)CSc6ccccc6)c(S(=O)(=O)C(F)(F)F)c5)cc4)CC3)c2)c(-c2ccc(Cl)cc2)n1C(C)C = 74.7
• O=C(c1cc(Cc2n[nH]c(=O)c3ccccc23)ccc1F)N1CCN(C(=O)C2CC2)CC1 + Cc1c(S(C)(=O)=O)c(-c2cc(F)cc(N3CCN(c4ccc(NS(=O)(=O)c5ccc(NC(CCN6CCC(C(=O)OCCCP(=O)(O)O)CC6)CSc6ccccc6)c(S(=O)(=O)C(F)(F)F)c5)cc4)CC3)c2)c(-c2ccc(Cl)cc2)n1C(C)C = 81.1

Hi, could you look up viability, T/C for each item in my list?
1. O=C(c1cc(Cc2n[nH]c(=O)c3ccccc23)ccc1F)N1CCN(C(=O)C2CC2)CC1 + CNC(C)C(=O)NC1CN(S(=O)(=O)c2cccc(S(=O)(=O)N3CCC4CCC(C(=O)NC(c5ccccc5)c5ccccc5)N4C(=O)C(NC(=O)C(C)NC)C3)c2)CCC2CCC(C(=O)NC(c3ccccc3)c3ccccc3)N2C1=O
2. C=C(F)C(=O)N1CCN(c2nc(OCC3CCCN3C)nc3c2CCN(c2cccc4cccc(Cl)c24)C3)CC1CC#N (stereo not drawn) + CNC(C)C(=O)NC1CN(S(=O)(=O)c2cccc(S(=O)(=O)N3CCC4CCC(C(=O)NC(c5ccccc5)c5ccccc5)N4C(=O)C(NC(=O)C(C)NC)C3)c2)CCC2CCC(C(=O)NC(c3ccccc3)c3ccccc3)N2C1=O
3. C#Cc1c(F)ccc2cc(O)cc(-c3ncc4c(N5CC6CCC(C5)N6)nc(OCC56CCCN5CC(F)C6)nc4c3F)c12 (stereo not drawn) + CNC(C)C(=O)NC1CN(S(=O)(=O)c2cccc(S(=O)(=O)N3CCC4CCC(C(=O)NC(c5ccccc5)c5ccccc5)N4C(=O)C(NC(=O)C(C)NC)C3)c2)CCC2CCC(C(=O)NC(c3ccccc3)c3ccccc3)N2C1=O

1: 41.8; 2: 55.6; 3: 63.2

====

Assign viability, T/C to each entry below.
- System: MPNST complex spheroid with HUVEC/MSC, growth, % test/control
- measurementDescription: Anticancer human tumor MPNST cell line growth inhibition [Asc];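 note: compounds left on spheroids for seven days before reading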
- conditionDescription: second compound 1 µM; first compound 10 µM; stronger effect = lower value
One number for each entry, in %.

The cases that follow already have their viability, T/C on record.
- C=CC(=O)N1CCN(c2nc(=O)n(-c3c(C)ccnc3C(C)C)c3nc(-c4c(O)cccc4F)c(F)cc23)C(C)C1 (stereo not drawn) + CNC(C)C(=O)NC1CN(S(=O)(=O)c2cccc(S(=O)(=O)N3CCC4CCC(C(=O)NC(c5ccccc5)c5ccccc5)N4C(=O)C(NC(=O)C(C)NC)C3)c2)CCC2CCC(C(=O)NC(c3ccccc3)c3ccccc3)N2C1=O: 154
- C=C(F)C(=O)N1CCN(c2nc(OCC3CCCN3C)nc3c2CCN(c2cccc4cccc(Cl)c24)C3)CC1CC#N (stereo not drawn) + CNC(C)C(=O)NC1CN(S(=O)(=O)c2cccc(S(=O)(=O)N3CCC4CCC(C(=O)NC(c5ccccc5)c5ccccc5)N4C(=O)C(NC(=O)C(C)NC)C3)c2)CCC2CCC(C(=O)NC(c3ccccc3)c3ccccc3)N2C1=O: 0.71

Consider now this further molecule.
Value of viability, T/C reported for the molecule C=C(F)C(=O)N1CCN(c2nc(OCC3CCCN3C)nc3c2CCN(c2cccc4cccc(Cl)c24)C3)CC1CC#N (stereo not drawn) + Cc1c(S(C)(=O)=O)c(-c2cc(F)cc(N3CCN(c4ccc(NS(=O)(=O)c5ccc(NC(CCN6CCC(C(=O)OCCCP(=O)(O)O)CC6)CSc6ccccc6)c(S(=O)(=O)C(F)(F)F)c5)cc4)CC3)c2)c(-c2ccc(Cl)cc2)n1C(C)C is 41.1
